Target: human plasma-derived Factor IXa (human, UniProt P00740 47-191; P00740 227-461)
Sequence (P00740 47-191, chain 1 of 2): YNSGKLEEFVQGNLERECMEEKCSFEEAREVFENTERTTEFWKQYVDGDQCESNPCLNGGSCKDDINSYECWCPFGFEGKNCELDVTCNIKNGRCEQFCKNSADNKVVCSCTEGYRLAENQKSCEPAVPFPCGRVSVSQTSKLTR
Sequence (P00740 227-461, chain 2 of 2): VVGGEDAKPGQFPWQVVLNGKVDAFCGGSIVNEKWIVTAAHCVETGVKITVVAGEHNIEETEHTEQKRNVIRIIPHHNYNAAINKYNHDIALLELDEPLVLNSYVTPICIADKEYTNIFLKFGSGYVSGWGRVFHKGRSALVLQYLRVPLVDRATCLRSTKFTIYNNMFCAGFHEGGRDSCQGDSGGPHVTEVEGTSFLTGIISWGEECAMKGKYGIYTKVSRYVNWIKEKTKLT
Experiment: cell-based or functional assay
# Stimulation Index, FXa generation assay, 800 nM OA antibody per record follows
measurement_name: Stimulation Index, FXa generation assay, 800 nM OA antibody (fold)

{"columns": ["binder", "assay_value"],
 "data": [
  ["one-armed (OA) mAb11-1091 (antibody, V domains shown) VH: EVQLVESGGGLVQPGRSLKLSCAASGFTFHDYAMHWVRQVPGKGLEWVSGISWKGDIGGYVDSVKGRFTISRDNAKNSLYLQMNSLRAEDTALYYCAKSYGSGSFYNAFDSWGQGTLVTVSS VL: DIQMTQSPSTLSASVGDRVTITCRASQSISSWLAWYQQKPGKAPKFLIYKASKLDRGTPSRFSGSGSGTEFTLTISSLQPDDFATYYCLEYSSYIRTFGQGTKVEIK", 5400],
  ["one-armed (OA) mAb11-1076 (antibody, V domains shown) VH: EVQLVESGGGLVQPGRSLRLSCAASGFTFHDYAMHWVRQVPGKGLEWVSGISWKGDIGGYVDSVKGRFTISRDNAKNSLYLQMNSLRAEDTALYYCAKSYGSGSFYNAFDSWGQGTLVTVSS VL: DIQMTQSPSTLSASVGDRVTITCRASQSISSWLAWYQQKPGKAPKFLIYKASKLERGTPSRFSGSGSGTEFTLTISSLQPDDFATYYCLEYSSYIRTFGQGTKVEIK", 3590],
  ["one-armed (OA) mAb11-0962 (antibody, V domains shown) VH: EVQLVESGGGLVQPGRSLRLSCAASKFTFHDYAMHWVRQAPGKGLEWVSGISWKGDIGGYADSVKGRFTISRDNAKNSLYLQMNSLRAEDTALYYCAKSYGSGSFYNAFDSWGQGTLVTVSS VL: DIQMTQSPSTLSASVGDRVTITCRASQSISSWLAWYQQKPGKAPKFLIYKASKLDRGTPSRFSGSGSGTEFTLTISSLQPDDFATYYCLEYSSYIRTFGQGTKVEIK", 3370]
]}
